system tested: CCK-A receptors (Cavia porcellus, UniProt Q63931)
Construct: Pancreases were removed from Hartley-strain guinea pigs, the pancreases were homogenized
Sequence (Q63931 whole entry): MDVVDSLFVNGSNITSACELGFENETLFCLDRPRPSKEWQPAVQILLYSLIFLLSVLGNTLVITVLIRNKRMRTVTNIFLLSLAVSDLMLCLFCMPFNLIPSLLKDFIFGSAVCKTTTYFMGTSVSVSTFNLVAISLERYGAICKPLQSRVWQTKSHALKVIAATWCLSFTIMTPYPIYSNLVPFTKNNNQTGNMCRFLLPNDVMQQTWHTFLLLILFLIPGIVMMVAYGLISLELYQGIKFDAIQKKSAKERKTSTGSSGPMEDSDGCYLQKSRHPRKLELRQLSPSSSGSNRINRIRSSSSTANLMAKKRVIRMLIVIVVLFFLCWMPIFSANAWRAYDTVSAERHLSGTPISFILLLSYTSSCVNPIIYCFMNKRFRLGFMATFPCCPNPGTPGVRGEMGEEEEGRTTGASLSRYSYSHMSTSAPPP
assay details: Measurement of Binding Affinity for CCK-A Receptors
test context: inhibition of specific [3H]L-364,718 (0.2 nM) binding; guinea pig pancreas; 25° C., 2 hours; pH 6.5
reported endpoint: Ki (µM)

Example cases with answers are listed next.
| compound | measure unit | reported result |
| --- | --- | --- |
| CC(C)(C)C(=O)CN1C(=O)C(NC(=O)Nc2cccc(SCC(=O)O)c2)CN(c2ccccc2)c2ccccc21 (centres unmarked) [Example 33] | µM | 0.244 |
| Cc1ccc2c(c1)N(CC(=O)c1ccccc1C)C(=O)C(NC(=O)Nc1cccc(C(=O)O)c1)CN2C(=O)CC(C)(C)C (centres unmarked) | µM | 0.346 |
| Cc1cccc(NC(=O)NC2CN(C(=O)C3CCCC3)c3ccccc3N(CC(=O)c3ccccc3C)C2=O)c1 (centres unmarked) | µM | 0.0143 |
| CC(C)(C)C(=O)CN1C(=O)C(NC(=O)Nc2cccc(C(=O)O)c2)CN(c2ccccc2F)c2ccccc21 (centres unmarked) | µM | 0.472 |
| Cc1cccc(NC(=O)N[C@@H]2N=C(c3ccccc3)c3ccccc3N(C)C2=O)c1 [L-365, 260, reference compound] | µM | 0.00064 |
| Cc1ccc2c(c1)N(CC(=O)c1ccccc1C)C(=O)C(NC(=O)Nc1cccc(C(=O)O)c1)CN2C(=O)c1cccs1 (centres unmarked) | µM | 0.13 |

[P] Cc1ccc2c(c1)N(CC(=O)c1ccccc1C)C(=O)C(NC(=O)Nc1cccc(C(=O)O)c1)CN2C(=O)C1CCCC1 (centres unmarked)
[Q] Cc1ccc2c(c1)N(CC(=O)c1ccccc1C)C(=O)C(NC(=O)Nc1ccc(C)c(C(=O)O)c1)CN2C(=O)CC(C)(C)C (centres unmarked)
Q) Which numeric Ki is bigger, that of P or that of Q ? # reply format: chosen label
A) Q

[1] CC(=O)N1CC(NC(=O)Nc2cccc(C(=O)O)c2)C(=O)N(CC(=O)c2ccccc2C)c2cc(C)ccc21 (centres unmarked)
[2] CC(C)(C)C(=O)CN1C(=O)C(NC(=O)Nc2cccc(C(=O)O)c2)CN(c2ccccc2)c2ccccc21 (single isomer, unassigned; (-)) [Example 70 (-form)]
Q) Would you mind telling me which has the lower recorded Ki between 1 and 2 ? # reply format: chosen label
A) 1
(1: 0.00634 µM, 2: 0.255 µM)

---

system tested: CCK-B receptors (Cavia porcellus)
Construct: Cerebral cortices were removed from Hartley-strain guinea pigs, the cerebral cortices were homogenized; from tissue; host or cells: cerebral cortex of Hartley-strain guinea pigs, crude membrane pellet
Sequence (H0VZC5 1-426): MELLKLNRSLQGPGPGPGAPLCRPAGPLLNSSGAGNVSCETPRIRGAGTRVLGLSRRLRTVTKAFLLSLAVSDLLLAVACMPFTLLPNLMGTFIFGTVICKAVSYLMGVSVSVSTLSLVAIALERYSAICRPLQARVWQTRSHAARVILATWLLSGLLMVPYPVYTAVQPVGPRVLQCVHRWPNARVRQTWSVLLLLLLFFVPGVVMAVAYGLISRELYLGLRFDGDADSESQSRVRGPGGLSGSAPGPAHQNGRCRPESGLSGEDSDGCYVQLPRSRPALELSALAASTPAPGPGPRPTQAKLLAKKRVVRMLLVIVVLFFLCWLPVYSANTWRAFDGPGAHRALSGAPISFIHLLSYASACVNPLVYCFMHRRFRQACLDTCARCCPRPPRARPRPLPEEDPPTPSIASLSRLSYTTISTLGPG
assay details: Measurement of Binding Affinity for CCK-B Receptors
Parameters: species or system Hartley-strain guinea pig
reported endpoint: Ki (nM)
Express your answer in nM, writing the number without its unit.

Q) Given the compound Cc1cccc(NC(=O)N[C@@H]2N=C(c3ccccc3)c3ccccc3N(C)C2=O)c1 [L-365, 260, reference compound] , what is its reported Ki?
A) 24.6
